- Test system: CCRF-CEM leukemia
- Test description: NCI-60 one-dose screen, 48 h (100 = growth as untreated, 0 = no growth, -100 = all killed)
- Details: 10 µM unless noted
About 83,000 compounds went through this panel and 20% of them were active in at least one assay; those are over-represented in the sample as a whole. Active and inactive are the calls of the source. Rule for the calls: active = growth percent below 10; inactive = the rest.
Recorded endpoint: growth

Example results:
# Compound, Observed measurement
records = [
    ("O=C(O)C1(Br)CC12c1ccccc1-c1ccccc12 (stereo not drawn)", "97.4% (inactive)"),
    ("COc1ccc(C(c2ccc(OC)cc2)C(Cl)(Cl)Cl)cc1", "55.6% (inactive)"),
    ("Fc1ccc(C2=NN(c3ccccc3)C(c3sc(N(CCCl)CCCl)nc3Cl)C2)cc1 (stereo not drawn)", "83.1% (inactive)"),
]

Now turn to the next compound.
Exercise: State its growth on CCRF-CEM leukemia: C[C@]12CC[C@@H]3C4=C(CC[C@H]3[C@@H]1CC[C@@H]2O)CC(=O)CC4
Key: 96.3% (inactive)

----------
- System: M14 melanoma
- Test description: NCI-60 one-dose screen, 48 h
- Details: 10 µM unless noted
The panel holds about 83,000 compounds, 20% with a hit somewhere; the sample as a whole holds those more often. Calls of active or inactive are those of the source. How the source made its calls: active means growth percent below 10; inactive means the rest.
Would you mind answering with one of these outcomes? active, inactive

Previously resolved entries follow.
# Compound, Measured target, Answer label
rows = [
    ("C[CH2][Pb]([CH2]C)([CH2]C)[O]C(=O)COC", "M14 melanoma", "active"),
    ("CC(C)[C@]12O[C@H]1[C@@H]1O[C@]13[C@]1(O[C@H]1C[C@H]1C4=C(CC[C@@]13C)C(=O)OC4)[C@@H]2OC(=O)OC(C)(C)C", "M14 melanoma", "active"),
    ("COC[CH2][Hg][C]#[C][Hg][CH2]COC", "M14 melanoma", "inactive"),
    ("CCC1([N+](=O)[O-])COP(=O)(NCc2cccnc2)OC1 (stereo unspecified)", "M14 melanoma", "inactive"),
    ("CC12CCC(=O)C=C1C(O)CC1C2CCC2(C)C(O)CCC12 (stereo unspecified)", "M14 melanoma", "inactive"),
    ("OC1CCCCC1N1CCC(c2ccccc2)CC1 (stereo unspecified)", "M14 melanoma", "inactive"),
    ("N#[N+]c1nc2nc(N)[nH]c(=O)c2[nH]1", "M14 melanoma", "inactive"),
    ("O=C(O)C1(Br)CC12c1ccccc1-c1ccccc12 (stereo unspecified)", "M14 melanoma", "inactive"),
]

Exercise: Any idea what this test logged for Cc1ccc(N)cc1[As]=[As]c1cc(N)ccc1C (stereo unspecified) ?
Key: active

Exercise: Follow-up entry: CNC(=O)Oc1ccccc1
Key: inactive

Exercise: Follow-up entry: O=S(=O)(Cl)c1ccccc1 (tested in a mixture with another compound)
Key: inactive

----------
- Test system: TK-10 renal
- Test description: NCI-60 one-dose screen, 48 h
- Details: 10 µM unless noted
The panel holds about 83,000 compounds, 20% with a hit somewhere; the sample as a whole holds those more often. Active and inactive are the calls of the source. Rule for the calls: active = growth percent below 10; inactive = the rest.
Would you mind answering with one of these outcomes? class 1 (active), class 0 (inactive)

Previously resolved entries follow.
# Compound, Measured target, Answer label
measured = [
    ("O=CN1N=C(c2ccc3c(c2)OCO3)CC1c1sc(N(CCCl)CCCl)nc1Cl (stereo not drawn)", "TK-10 renal", "class 0"),
    ("CN1C(=O)C(CCC(=O)O)N=C(c2cccc(O)c2)c2ccccc21 (stereo not drawn)", "TK-10 renal", "class 0"),
]

Exercise: Any idea what this test logged for NC(=O)SCC(=O)Nc1ccc([As](=O)(O)O)cc1 ?
Key: class 0

Exercise: Follow-up entry: CCN(CC)CCOc1c(C(C)C)cccc1C(C)C
Key: class 0

Exercise: Follow-up entry: CCOc1cc(C=C(C#N)C#N)cc(Br)c1O
Key: class 0

Exercise: Follow-up entry: Oc1ccc2c3c1O[C@H]1c4[nH]c5ccccc5c4C[C@@]4(O)C(C2)N(CC2CC2)CC[C@]314
Key: class 0

Exercise: Follow-up entry: Oc1ccccc1OB(Oc1ccccc1O)N(CCCl)CCCl
Key: class 0

Exercise: Follow-up entry: Nc1cccc2c1Oc1ccccc1O2
Key: class 0

Exercise: Follow-up entry: CCC[CH2][Sn]1([CH2]CCC)[O]C(=O)c2cccc([N+](=O)[O-])c2C(=O)[O]1
Key: class 1

Exercise: Follow-up entry: N#[N+]c1nc2nc(N)[nH]c(=O)c2[nH]1
Key: class 0

Exercise: Follow-up entry: CCOCC1(CCc2ccccc2)C(=O)NC(=S)NC1=O
Key: class 0

----------
- Test system: NCI-H522 lung
- Test description: NCI-60 one-dose screen, 48 h (100 = growth as untreated, 0 = no growth, -100 = all killed)
- Details: 10 µM unless noted
About 83,000 compounds went through this panel and 20% of them were active in at least one assay; those are over-represented in the sample as a whole.
Recorded endpoint: growth (%)
Reply with just the number (in %).

Example results:
# Compound, Measurement unit, Observed measurement
data = [
    ("CCC(CO)NC1CCCCC1 (stereo not given)", "%", 68.1),
    ("COC(C)(C)CCC[C@H](C)C/C=C/C(C)=C/C(=O)OC(C)C", "%", 69.1),
    ("[N-]=[N+]=NC(C(=O)O)c1ccccc1 (stereo not given)", "%", 87.3),
    ("C#CC1(O)CCC2(C)C(CCC3C4CCC(=O)C4(C)CCC32)C1 (stereo not given)", "%", 86.9),
    ("[Cl][Hg][n]1cnc2c(Cl)c(Cl)c(Cl)cc21", "%", 50.2),
]

Exercise: I am curious: what growth value has been reported for CC1(CF)NC(=O)NC1=O (stereo not given) ?
Key: 122

Exercise: Follow-up entry: CNC(C)Cc1ccccc1 (stereo not given) (tested in a mixture with another compound)
Key: 82.4

Exercise: Follow-up entry: CC(=O)O[C@H]1CC[C@H]2[C@@H]3CC[C@H]4CC=C(C)C[C@]4(C)[C@H]3CC[C@]12C
Key: 92.4

Exercise: Follow-up entry: O=C(O)C1(Br)CC12c1ccccc1-c1ccccc12 (stereo not given)
Key: 95.9

----------
The following compounds are shown together with reported growth values.
- Test system: HL-60(TB) leukemia
- Test description: NCI-60 one-dose screen, 48 h (100 = growth as untreated, 0 = no growth, -100 = all killed)
- Details: 10 µM unless noted
About 83,000 compounds went through this panel and 20% of them were active in at least one assay; those are over-represented in the sample as a whole.
Reply with just the number (in %).

Example results:
# Compound, Observed measurement
measured = [
    ("CC(=S)NC(=O)C(=O)/C=C1/NC(=O)C(=O)S1", 104),
    ("COc1cccc(-c2cc(C(=O)Nc3ccc(/C=C/c4ccc(OC5CCN(C)CC5)cc4)cc3)ccc2OC)c1", 9.98),
    ("CCOC(=O)CCCS(C)(=O)=O", 117),
    ("O=S(=O)(NCCCNc1cc(-c2cn(-c3ccccc3)nc2-c2cccc(O)c2)ccn1)c1ccc(Br)cc1", -13.1),
    ("CC([C@H]1CCC2C3CCC4C[C@@H](NC=O)CC[C@]4(C)C3CC[C@@]21C)N(C)C (stereo not given in full)", -61.1),
    ("COc1ccc(OC)c(NC(=O)c2cc3oc4ccccc4c3cc2O)c1", 121),
]

Exercise: I am curious: what growth value has been reported for COc1ccc(/C=C/C(=O)c2cccc(B(O)O)c2)cc1O ?
Key: 4.3

Exercise: Follow-up entry: OC(COc1ccccc1)CN1CCN(c2ccc(Cl)cc2)CC1 (stereo not given)
Key: 83.3

Exercise: Follow-up entry: COc1cc2c(cc1OCCCCCCN1CCN(CC(=O)Nc3ccc(Cl)cc3C(=O)c3ccccc3Cl)CC1)N=CC1CCCN1C2=O (stereo not given)
Key: -85.8

Exercise: Follow-up entry: COc1cc(CNS(=O)(=O)c2ccc(C)cc2)ccc1OCc1cn(-c2ccccc2)nn1
Key: 85.2

----------
- System: MALME-3M melanoma
- Test description: NCI-60 one-dose screen, 48 h (100 = growth as untreated, 0 = no growth, -100 = all killed)
- Details: 10 µM unless noted
Compounds without any hit were thinned out: in the full panel of roughly 83,000, 20% have a hit.
The following compounds are shown together with reported growth values.
Reply with just the number (in %).

# Compound, Recorded endpoint, Observed measurement
measured = [
    ("CN(Cc1cccnc1)N=O", "growth", 96.6),
    ("CCOC(=O)/C=C(\\C)Nc1ccc(N/C(C)=C/C(=O)OCC)c2c1Oc1ccccc1O2", "growth", 107),
    ("C/C(=C\\c1cc(C(F)(F)F)n(-c2ccc(N)cc2)n1)[C@@H]1C[C@@H]2O[C@]2(C)CCC[C@H](C)[C@H](O)[C@@H](C)C(=O)C(C)(C)[C@@H](O)CC(=O)O1", "growth", 58.1),
    ("CC(=O)O[C@H]1CCC2C3CCC4=C/C(=N/O)CCC4(C)C3CCC21C (stereo not given in full)", "growth", 94.3),
]

Now turn to the next compound.
Exercise: I am curious: what growth value has been reported for COc1ccc2c(c1)NC1=C(C(=O)OC1)C2c1cc(OC)c(OC)c(OC)c1 (stereo not given) ?
Key: 21.7
